tested on: 777334-354-R2-J4-PDC tumor spheroids with HUVEC/MSC, viability; assay: Anticancer human tumor 777334-354-R2-J4-PDC patient-derived pancreatic adenocarcinoma cell line growth inhibition [GQUAD]; conditions: second compound 1 µM; first compound 0.1 µM; stronger effect = lower value
METRIC_NAME: viability, T/C (%)

O=C(NO)c1cnc(N2CCN(S(=O)(=O)c3ccc4ccccc4c3)CC2)nc1 + Cc1[nH]c2ccc(F)cc2c1-c1nc2c3cccnc3c3ncccc3c2[nH]1 = 84.6
Cc1cccc(N(C)C(=O)C2C(O)CCN2c2nc(C)cc(C(F)(F)F)c2C#N)c1 (stereo not drawn) + Cc1[nH]c2ccc(F)cc2c1-c1nc2c3cccnc3c3ncccc3c2[nH]1 = 85.4
C#Cc1c(F)ccc2cc(O)cc(-c3ncc4c(N5CC6CCC(C5)N6)nc(OCC56CCCN5CC(F)C6)nc4c3F)c12 (stereo not drawn) + Cc1[nH]c2ccc(F)cc2c1-c1nc2c3cccnc3c3ncccc3c2[nH]1 = 33.9

###

system: 777334-354-R2-J4-PDC tumor spheroids with HUVEC/MSC, viability; experiment: Anticancer human tumor 777334-354-R2-J4-PDC cell line growth inhibition [GQUAD]; conditions: second compound 10 µM; first compound 0.0316 µM; stronger effect = lower value;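 note: spheroids exposed to compounds for 7 days before readout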
METRIC_NAME: viability, T/C (%)

Cn1ncnc1[C@H]1c2n[nH]c(=O)c3cc(F)cc(c23)N[C@@H]1c1ccc(F)cc1 + CN(C)c1ccc(Nc2c3ccc(NC(=O)CCN4CCCC4)cc3nc3cc(NC(=O)CCN4CCCC4)ccc23)cc1 = 77.6
CC(C)(O)C1CCC(Nc2ccc3ncc(-c4cccc(C(F)(F)F)c4)n3n2)CC1 (stereo not given) + CN(C)c1ccc(Nc2c3ccc(NC(=O)CCN4CCCC4)cc3nc3cc(NC(=O)CCN4CCCC4)ccc23)cc1 = 83.9
CC1COCCN1c1cc(C2(O)CC3CCC(C2)O3)c2cnn(-c3ccn[nH]3)c2n1 (stereo not given) + Cc1[nH]c2ccc(F)cc2c1-c1nc2c3cccnc3c3ncccc3c2[nH]1 = 21.8
CCCS(=O)(=O)Nc1ccc(F)c(C(=O)c2c[nH]c3ncc(-c4ccc(Cl)cc4)cc23)c1F + Cc1cnc(CNC(=O)c2c(=O)c3ccc(N4CCCN(C)CC4)nc3n3c2sc2ccccc23)cn1 = 52.7
COc1cc(C2c3cc4c(cc3C(OC3OC5COC(C)OC5C(O)C3O)C3COC(=O)C23)OCO4)cc(OC)c1O (stereo not given) + Cc1cnc(CNC(=O)c2c(=O)c3ccc(N4CCCN(C)CC4)nc3n3c2sc2ccccc23)cn1 = 58.6

###

test system: 777334-354-R2-J4-PDC tumor spheroids with HUVEC/MSC, viability; assay: Anticancer human tumor 777334-354-R2-J4-PDC cell line growth inhibition [GQUAD]; conditions: curve of first compound; second compound 1 µM;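 note: spheroids exposed to compounds for 7 days before readout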
Measured IC50 of individual entries
METRIC_NAME: IC50 (nM)

O=C(NO)c1cnc(N2CCN(S(=O)(=O)c3ccc4ccccc4c3)CC2)nc1 + Cc1cnc(CNC(=O)c2c(=O)c3ccc(N4CCCN(C)CC4)nc3n3c2sc2ccccc23)cn1 = 474
COc1ccc([C@@H](O)c2cc(-c3ncnc4cc(N5CCOCC5)ccc34)c(F)cc2Cl)nn1 + Cc1[nH]c2ccc(F)cc2c1-c1nc2c3cccnc3c3ncccc3c2[nH]1 = 1890
CCCS(=O)(=O)Nc1ccc(F)c(C(=O)c2c[nH]c3ncc(-c4ccc(Cl)cc4)cc23)c1F + Cc1[nH]c2ccc(F)cc2c1-c1nc2c3cccnc3c3ncccc3c2[nH]1 = 7020
COc1cccc2c1C(=O)c1c(O)c3c(c(O)c1C2=O)CC(O)(C(=O)CO)CC3OC1CC(N)C(O)C(C)O1 (stereo unspecified) + CN(C)c1ccc(Nc2c3ccc(NC(=O)CCN4CCCC4)cc3nc3cc(NC(=O)CCN4CCCC4)ccc23)cc1 = 679
CC(=O)O[C@H]1C(=O)[C@@]2(C)[C@H]([C@H](OC(=O)c3ccccc3)[C@]3(O)C[C@H](OC(=O)[C@H](O)[C@@H](NC(=O)c4ccccc4)c4ccccc4)C(C)=C1C3(C)C)[C@]1(OC(C)=O)CO[C@@H]1C[C@@H]2O + CN(C)c1ccc(Nc2c3ccc(NC(=O)CCN4CCCC4)cc3nc3cc(NC(=O)CCN4CCCC4)ccc23)cc1 = 89.8
C=CCn1c(=O)c2cnc(Nc3ccc(N4CCN(C)CC4)cc3)nc2n1-c1cccc(C(C)(C)O)n1 + CN(C)c1ccc(Nc2c3ccc(NC(=O)CCN4CCCC4)cc3nc3cc(NC(=O)CCN4CCCC4)ccc23)cc1 = 793
Cc1[nH]c2ccccc2c1CCNCc1ccc(/C=C/C(=O)NO)cc1 + Cc1[nH]c2ccc(F)cc2c1-c1nc2c3cccnc3c3ncccc3c2[nH]1 = 176
CC(C)(O)C1CCC(Nc2ccc3ncc(-c4cccc(C(F)(F)F)c4)n3n2)CC1 (stereo unspecified) + Cc1cnc(CNC(=O)c2c(=O)c3ccc(N4CCCN(C)CC4)nc3n3c2sc2ccccc23)cn1 = 913
Nc1ccn(C2OC(CO)C(O)C2(F)F)c(=O)n1 (stereo unspecified) + Cc1cnc(CNC(=O)c2c(=O)c3ccc(N4CCCN(C)CC4)nc3n3c2sc2ccccc23)cn1 = 334
COc1ccc([C@@H](O)c2cc(-c3ncnc4cc(N5CCOCC5)ccc34)c(F)cc2Cl)nn1 + CN(C)c1ccc(Nc2c3ccc(NC(=O)CCN4CCCC4)cc3nc3cc(NC(=O)CCN4CCCC4)ccc23)cc1 = 2710
CCc1c2c(nc3ccc(O)cc13)-c1cc3c(c(=O)n1C2)COC(=O)[C@]3(O)CC + CN(C)c1ccc(Nc2c3ccc(NC(=O)CCN4CCCC4)cc3nc3cc(NC(=O)CCN4CCCC4)ccc23)cc1 = 4.96
COc1cc(C2c3cc4c(cc3C(OC3OC5COC(C)OC5C(O)C3O)C3COC(=O)C23)OCO4)cc(OC)c1O (stereo unspecified) + Cc1[nH]c2ccc(F)cc2c1-c1nc2c3cccnc3c3ncccc3c2[nH]1 = 3270

Measured values drawn from PubChem BioAssay AID2060499 for this set.
